assayContext: in water, 298.15 K
readout: solubility (mole fraction)
// no unit, no text: just the number

Lab note: O=C(NNC(=S)Nc1ccc(Cl)cc1)c1ccncc1 gave solubility (mole fraction) of 5.17e-07

====

assayContext: in water, 318.15 K
readout: solubility (mole fraction)
// no unit, no text: just the number

Lab note: O=C(NNC(=S)Nc1ccc(Cl)cc1)c1ccncc1 gave solubility (mole fraction) of 7.05e-07

====

assayContext: in transcutol, 338.15 K
readout: solubility (mole fraction)

Lab note: O=C(NNC(=S)Nc1ccc(Cl)cc1)c1ccncc1 gave solubility (mole fraction) of 0.0607

====

assayContext: in water, 338.15 K
readout: solubility (mole fraction)
// no unit, no text: just the number

Lab note: O=C(NNC(=S)Nc1ccc(Cl)cc1)c1ccncc1 gave solubility (mole fraction) of 9.75e-07

====

assayContext: in transcutol, 308.15 K
readout: solubility (mole fraction)
// no unit, no text: just the number

Lab note: O=C(NNC(=S)Nc1ccc(Cl)cc1)c1ccncc1 gave solubility (mole fraction) of 0.0468

====

assayContext: in transcutol, 298.15 K
readout: solubility (mole fraction)
// no unit, no text: just the number

Lab note: O=C(NNC(=S)Nc1ccc(Cl)cc1)c1ccncc1 gave solubility (mole fraction) of 0.0423

====

assayContext: in water, 308.15 K
readout: solubility (mole fraction)
// no unit, no text: just the number

Lab note: O=C(NNC(=S)Nc1ccc(Cl)cc1)c1ccncc1 gave solubility (mole fraction) of 5.93e-07
